System: A-375
Method summary: Cytotoxicity in human A375 cells assessed as reduction in cell viability incubated for 48 hrs by MTT assay
Type: functional, cell-based
Assay context: Homo sapiens, A-375, 48 h; read-out: IC50
Mark T only when IC50 stays strictly below 4 µM. Values equal to the cut-off are F.

See these solved cases before continuing.
> print(dat)
                                   compound  category.label
1  COc1cc(C2Oc3cc(-c4cc(=O)c5c(O)cc(O)cc5o4)ccc3OC2/C=C2/C(=O)ONC2c2ccc(C)cc2)ccc1O (stereo not given)               F
2  COc1cc(C2Oc3cc(-c4cc(=O)c5c(O)cc(O)cc5o4)ccc3OC2/C=C2\C(=O)ON=C2c2ccc(Cl)cc2)ccc1O (stereo not given)               T
3  COc1cc(C2Oc3cc(-c4cc(=O)c5c(O)cc(O)cc5o4)ccc3OC2/C=C2/C(=O)ONC2C(F)(F)F)ccc1O (stereo not given)               T

Problem: For the compound COc1cc(C2Oc3cc(-c4cc(=O)c5c(O)cc(O)cc5o4)ccc3OC2/C=C2/C(=O)ONC2c2ccc(F)cc2)ccc1O (stereo not given) , is IC50 under 4 µM?
F

Problem: For the compound COc1cc(C2Oc3cc(-c4cc(=O)c5c(O)cc(O)cc5o4)ccc3OC2c2noc(C)c2CO)ccc1O (stereo not given) , is IC50 under 4 µM?
F

Problem: For the compound COc1cc(C2Oc3cc(-c4cc(=O)c5c(O)cc(O)cc5o4)ccc3OC2/C=C2/C(=O)ONC2c2ccc(Cl)cc2)ccc1O (stereo not given) , is IC50 under 4 µM?
T

Problem: For the compound COc1cc(C2Oc3cc(-c4cc(=O)c5c(O)cc(O)cc5o4)ccc3OC2c2cc(CO)on2)ccc1O (stereo not given) , is IC50 under 4 µM?
F

Problem: For the compound COc1cc(C2Oc3cc(-c4cc(=O)c5c(O)cc(O)cc5o4)ccc3OC2c2cc(C(=O)NC3CCCCC3)on2)ccc1O (stereo not given) , is IC50 under 4 µM?
F

Problem: For the compound COc1cc(C2Oc3cc(-c4cc(=O)c5c(O)cc(O)cc5o4)ccc3OC2C=O)ccc1O (stereo not given) , is IC50 under 4 µM?
F

Problem: For the compound COc1cc(C2Oc3cc(-c4cc(=O)c5c(O)cc(O)cc5o4)ccc3OC2c2cc(C(=O)NS(=O)(=O)c3ccccc3)on2)ccc1O (stereo not given) , is IC50 under 4 µM?
T

Problem: For the compound COc1cc(C2Oc3cc(-c4cc(=O)c5c(O)cc(O)cc5o4)ccc3OC2c2cc(C(C)(C)O)on2)ccc1O (stereo not given) , is IC50 under 4 µM?
T

Problem: For the compound COc1cc(C2Oc3cc(-c4cc(=O)c5c(O)cc(O)cc5o4)ccc3OC2/C=C2/C(=O)ONC2CCl)ccc1O (stereo not given) , is IC50 under 4 µM?
T

Problem: For the compound COc1cc(C2Oc3cc(-c4cc(=O)c5c(O)cc(O)cc5o4)ccc3OC2c2cc(C(=O)Nc3ccc(C(F)(F)F)cc3)on2)ccc1O (stereo not given) , is IC50 under 4 µM?
T

Problem: For the compound COc1cc(C2Oc3cc(-c4cc(=O)c5c(O)cc(O)cc5o4)ccc3OC2/C=C2/C(=O)ON(C)C2C)ccc1O (stereo not given) , is IC50 under 4 µM?
T

Problem: For the compound CCCC1NOC(=O)/C1=C/C1Oc2ccc(-c3cc(=O)c4c(O)cc(O)cc4o3)cc2OC1c1ccc(O)c(OC)c1 (stereo not given) , is IC50 under 4 µM?
F

Problem: For the compound COc1cc(C2Oc3cc(-c4cc(=O)c5c(O)cc(O)cc5o4)ccc3OC2/C=C2/C(=O)ONC2c2ccccc2)ccc1O (stereo not given) , is IC50 under 4 µM?
F

Problem: For the compound COc1cc(C2Oc3cc(-c4cc(=O)c5c(O)cc(O)cc5o4)ccc3OC2c2cc(C(=O)NS(=O)(=O)c3ccc(Cl)cc3)on2)ccc1O (stereo not given) , is IC50 under 4 µM?
F

Problem: For the compound COc1cc(C2Oc3cc(-c4cc(=O)c5c(O)cc(O)cc5o4)ccc3OC2CO)ccc1O (stereo not given) , is IC50 under 4 µM?
F

Problem: For the compound COc1cc(C2Oc3cc(-c4cc(=O)c5c(O)cc(O)cc5o4)ccc3OC2c2cc(Cc3ccccc3)on2)ccc1O (stereo not given) , is IC50 under 4 µM?
T

Problem: For the compound COc1cc(C2Oc3cc(-c4cc(=O)c5c(O)cc(O)cc5o4)ccc3OC2c2cc(CN)on2)ccc1O (stereo not given) , is IC50 under 4 µM?
F

---

Tested on: A549
Method summary: Cytotoxicity in human A549 cells assessed as reduction in cell viability incubated for 48 hrs by MTT assay
Format: functional, cell-based
Assay context: Homo sapiens, A549, 48 h; read-out: IC50
Mark Fulfilled only when IC50 stays strictly below 10 µM. Values equal to the cut-off are Not fulfilled.

See these solved cases before continuing.
> print(dat)
                                   compound  target.entity  category.label
1  COc1cc(C2Oc3cc(-c4cc(=O)c5c(O)cc(O)cc5o4)ccc3OC2CO)ccc1O (configuration not stated)           A549   Not fulfilled
2  COc1cc(C2Oc3cc(-c4cc(=O)c5c(O)cc(O)cc5o4)ccc3OC2c2cc(Cc3ccccc3)on2)ccc1O (configuration not stated)           A549       Fulfilled
3  COc1cc(C2Oc3cc(-c4cc(=O)c5c(O)cc(O)cc5o4)ccc3OC2c2cc(C(=O)NC3CCCCC3)on2)ccc1O (configuration not stated)           A549   Not fulfilled
4  COc1cc(C2Oc3cc(-c4cc(=O)c5c(O)cc(O)cc5o4)ccc3OC2c2cc(C(=O)NS(=O)(=O)c3ccc(Cl)cc3)on2)ccc1O (configuration not stated)           A549       Fulfilled
5  COc1cc(C2Oc3cc(-c4cc(=O)c5c(O)cc(O)cc5o4)ccc3OC2c2cc(-c3ccc(C)cc3)on2)ccc1O (configuration not stated)           A549   Not fulfilled
6  COc1cc(C2Oc3cc(-c4cc(=O)c5c(O)cc(O)cc5o4)ccc3OC2/C=C2/C(=O)ON(c3ccccc3)C2C)ccc1O (configuration not stated)           A549   Not fulfilled

Problem: For the compound COc1cc(C2Oc3cc(-c4cc(=O)c5c(O)cc(O)cc5o4)ccc3OC2c2cc(C(=O)Nc3ccc(C(F)(F)F)cc3)on2)ccc1O (configuration not stated) , is IC50 under 10 µM?
Fulfilled

Problem: For the compound COc1cc(C2Oc3cc(-c4cc(=O)c5c(O)cc(O)cc5o4)ccc3OC2/C=C2/C(=O)ONC2c2ccc(F)cc2)ccc1O (configuration not stated) , is IC50 under 10 µM?
Fulfilled

Problem: For the compound COc1cc(C2Oc3cc(-c4cc(=O)c5c(O)cc(O)cc5o4)ccc3OC2/C=C2/C(=O)ONC2C(F)(F)F)ccc1O (configuration not stated) , is IC50 under 10 µM?
Not fulfilled

Problem: For the compound COc1cc(C2Oc3cc(-c4cc(=O)c5c(O)cc(O)cc5o4)ccc3OC2c2noc(C)c2CO)ccc1O (configuration not stated) , is IC50 under 10 µM?
Not fulfilled

Problem: For the compound COc1cc(C2Oc3cc(-c4cc(=O)c5c(O)cc(O)cc5o4)ccc3OC2c2cc(C(C)(C)O)on2)ccc1O (configuration not stated) , is IC50 under 10 µM?
Fulfilled

---

Tested on: A549
Method summary: Cytotoxicity in human A549 cells assessed as reduction in cell viability incubated for 48 hrs by MTT assay
Format: functional, cell-based
Assay context: Homo sapiens, A549, 48 h; read-out: IC50
Exercise: for every item that follows, state its recorded pIC50.
Numbers only, as −log10 of the molar value.

Below: 4 compounds and their reported pIC50.
> print(dat)
                                   compound  assay.value
1  COc1cc(C2Oc3cc(-c4cc(=O)c5c(O)cc(O)cc5o4)ccc3OC2C=O)ccc1O (stereo not drawn)         4.06
2  COc1cc(C2Oc3cc(-c4cc(=O)c5c(O)cc(O)cc5o4)ccc3OC2/C=C2\C(=O)ON=C2c2ccc(Cl)cc2)ccc1O (stereo not drawn)         5.92
3  COc1cc(C2Oc3cc(-c4cc(=O)c5c(O)cc(O)cc5o4)ccc3OC2/C=C2/C(=O)ON(C)C2C)ccc1O (stereo not drawn)         5.42
4  COc1cc(C2Oc3cc(-c4cc(=O)c5c(O)cc(O)cc5o4)ccc3OC2c2cc(C(=O)NS(=O)(=O)c3ccccc3)on2)ccc1O (stereo not drawn)         5.20

List pIC50 for every entry below, keeping the order given.
1. COc1cc(C2Oc3cc(-c4cc(=O)c5c(O)cc(O)cc5o4)ccc3OC2/C=C2/C(=O)ONC2c2ccc(C)cc2)ccc1O (stereo not drawn)
2. COc1cc(C2Oc3cc(-c4cc(=O)c5c(O)cc(O)cc5o4)ccc3OC2/C=C2/C(=O)ONC2c2ccc(Cl)cc2)ccc1O (stereo not drawn)
3. COc1cc(C2Oc3cc(-c4cc(=O)c5c(O)cc(O)cc5o4)ccc3OC2/C=C2/C(=O)ONC2CCl)ccc1O (stereo not drawn)
4. COc1cc(C2Oc3cc(-c4cc(=O)c5c(O)cc(O)cc5o4)ccc3OC2c2cc(CN)on2)ccc1O (stereo not drawn)

1. 5.05
2. 5.92
3. 7.15
4. 5.66
